- protocol: Cmax in mouse at 10 mg/kg, iv by LC-MS/MS method
- Assay type: ADME, organism-based
- Design: dose 10 mg/kg, route intravenous
- reported_conditions: in vivo
Below: a set of entries, each annotated with reported Cmax.
Report the value in µM with no unit label.

COc1cc(/C=C/C(=O)CC(=O)/C=C/c2ccc(O)c(OC)c2)ccc1O [CURCUMIN] ... 81
Oc1ccc(/C=C/c2cc(O)cc(O)c2)cc1 [RESVERATROL] ... 32
COc1cc(/C=C/c2ccc(O)cc2)cc(OC)c1 [PTEROSTILBENE] ... 67

Query: Look up Cmax: O=c1c(O)c(-c2ccc(O)c(O)c2)oc2cc(O)cc(O)c12 [QUERCETIN]
Reply: 27

Query: Entry to check: O=c1c(-c2ccc(O)cc2)coc2cc(O)cc(O)c12 [GENISTEIN]
Reply: 35

Query: Entry to check: O=C(O[C@@H]1Cc2c(O)cc(O)cc2O[C@@H]1c1cc(O)c(O)c(O)c1)c1cc(O)c(O)c(O)c1 [EPIGALOCATECHIN GALLATE]
Reply: 12

# credit: ChEMBL document CHEMBL4184147
